MEASURED_TARGET: human GR (Homo sapiens)
Sequence (P04150 1-777): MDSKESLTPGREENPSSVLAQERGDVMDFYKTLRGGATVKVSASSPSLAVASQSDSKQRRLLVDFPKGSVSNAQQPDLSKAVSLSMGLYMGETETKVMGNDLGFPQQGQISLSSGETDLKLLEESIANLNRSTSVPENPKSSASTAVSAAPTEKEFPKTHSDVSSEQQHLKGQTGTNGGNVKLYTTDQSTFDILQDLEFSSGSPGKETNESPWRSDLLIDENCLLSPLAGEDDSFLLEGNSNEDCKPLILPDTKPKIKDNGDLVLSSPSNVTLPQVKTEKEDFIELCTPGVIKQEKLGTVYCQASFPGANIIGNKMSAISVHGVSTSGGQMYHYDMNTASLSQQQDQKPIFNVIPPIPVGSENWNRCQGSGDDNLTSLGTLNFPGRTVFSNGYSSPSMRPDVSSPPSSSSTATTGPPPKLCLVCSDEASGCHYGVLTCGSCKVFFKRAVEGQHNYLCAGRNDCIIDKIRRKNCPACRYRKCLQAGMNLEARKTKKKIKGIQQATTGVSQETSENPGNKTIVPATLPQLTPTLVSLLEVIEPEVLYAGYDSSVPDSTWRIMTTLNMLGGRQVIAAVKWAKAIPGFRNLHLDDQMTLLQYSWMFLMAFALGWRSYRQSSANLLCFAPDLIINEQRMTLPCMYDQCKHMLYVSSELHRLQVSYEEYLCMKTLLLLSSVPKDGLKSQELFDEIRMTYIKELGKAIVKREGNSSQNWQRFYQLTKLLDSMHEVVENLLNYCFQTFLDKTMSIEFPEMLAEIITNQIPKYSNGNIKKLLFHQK
TEST_SUMMARY: Transrepression Assay (GITAR), TNFα-β-lactamase reporter in U937 cells
Type: cell-based
Set-up: U937 cells contain an endogenous glucocorticoid receptor (GR); endogenous in cells; host or cells: U937 cells stably transfected with the TNF-alpha promoter/beta-lactamase reporter
ASSAY_CONDITIONS: GITAR Emax minus GRAMMER Emax
Description: This assay assesses the ability of test compounds to control transcription from the TNFα-β-lactamase reporter gene in U937 cells, a human myelomonocytic leukemia cell line that naturally expresses the human GR. The assay measures compound dependent-repression of the TNFa promoter linked to a reporter gene. The human U937 cells that had been stablely transfected with the TNF-α promoter driving β-lactamase are used for this assay. U937 cells contain an endogenous glucocorticoid receptor (GR). […]
ASSAY_ENDPOINT: GITAR > GRAMM % SEP (%)

Some solved entries appear below for comparison.
C[C@]12Cc3cnn(-c4ccc(F)cc4)c3C=C1CC[C@@H]2CN(CCc1ccccc1Cl)S(=O)(=O)c1ccccc1F [Example 92] : 26.9
COC(=O)c1ccccc1S(=O)(=O)N(C[C@H]1CCC2=Cc3c(cnn3-c3ccc(F)cc3)C[C@@]21C)C[C@@H](C)O [Example 186] : 27.7
C[C@]12Cc3cnn(-c4ccccc4)c3C=C1CC[C@@H]2CN(CCc1ccccn1)S(=O)(=O)CC(F)(F)F [Example 138] : 5.6
C[C@]12Cc3cnn(-c4ccc(F)cc4)c3C=C1CC[C@@H]2CN(CC#N)S(=O)(=O)c1ccccc1F [Example 43] : 35.8
C[C@]12Cc3cnn(-c4ccc(F)cc4)c3C=C1CC[C@@H]2CN(CC(OS(=O)(=O)CC(F)(F)F)c1ccccn1)S(=O)(=O)CC(F)(F)F (some centres unmarked) [Example 145] : 33.3

A: Cc1oncc1S(=O)(=O)N(CC#N)C[C@H]1CCC2=Cc3c(cnn3-c3ccc(F)cc3)C[C@@]21C [Example 23]
B: C[C@H](O)CN(C[C@H]1CCC2=Cc3c(cnn3-c3ccc(F)cc3)C[C@@]21C)S(=O)(=O)Cc1ccccc1C(=O)O [Example 183]
stdin: Higher GITAR > GRAMM % SEP between A and B ? Mark your selection by writing its label.
stdout: A
(A: 31.3%, B: 8.2%)
